Known inhibition of a selection of compounds
System: 7,8-diaminopelargonic acid synthase BioA (Mycobacterium tuberculosis)
Assay: M. tuberculosis BioA enzyme inhibitors, primary screen, biochemical, plate reader, single point, HTS (AID 602481)
Condition Parameters: purified M. tuberculosis BioA enzyme, at 9.99 µM, hits give high values
Hit rate of the full screen: of about 360,000 compounds, about 340 (0.094%) were called active. For the sample, actives were picked, then their nearest neighbours and some compounds at random.
Measure: inhibition (%)

INSERT INTO results (chem_smiles, test_system, reported_value) VALUES
  ('CCN1[C@@H]2c3ccc(C4=CCCC4)c(=O)n3C[C@@H]2[C@@H](CO)[C@@H]1C(=O)NCc1ccccn1', '7,8-diaminopelargonic acid synthase BioA (Mycobacterium tuberculosis)', -3.69),
  ('CCC(=O)N1[C@H](C(=O)NCc2ccc(F)cc2)[C@@H](CO)[C@@H]2Cn3c(ccc(C4=CCCCC4)c3=O)[C@@H]21', '7,8-diaminopelargonic acid synthase BioA (Mycobacterium tuberculosis)', -2.21),
  ('COc1ccc(S(=O)(=O)N(C)C[C@H]2OCCCC[C@H](C)Oc3ccc(NS(=O)(=O)c4c(C)noc4C)cc3C(=O)N([C@@H](C)CO)C[C@@H]2C)cc1', '7,8-diaminopelargonic acid synthase BioA (Mycobacterium tuberculosis)', -0.18),
  ('C[C@H](CO)N1C[C@H](C)[C@H](CN(C)S(=O)(=O)c2ccc(C#N)cc2)Oc2ncc(-c3cccc(F)c3)cc2C1=O', '7,8-diaminopelargonic acid synthase BioA (Mycobacterium tuberculosis)', 4.36);

Hey, just so you know, these numbers are from PubChem BioAssay AID602481.
